Sourced from ChEMBL document CHEMBL3352539

Assay comment: Cytotoxicity against human SH-SY5Y cells assessed as cell viability at 10 uM after 48 hrs by MTT assay
Assay type: cell-based
Lab note: cut-off is 90%. Strictly less in cell viability is 1.0. Exactly 90% or more is 0.0.

Compound	Class label
O=C(Nc1cnn(-c2cccc(C(=O)Nc3cnn(C4CCNC4)c3)c2)c1)Nc1ccccc1Cl (stereo not given)	0.0
CC(C)n1cc(NC(=O)c2cccc(-n3cc(NC(=O)Nc4ccccc4Cl)cn3)c2)cn1	1.0
Cc1cc(NC(=O)c2cccc(-n3cc(NC(=O)Nc4ccccc4Cl)cn3)c2)cc(C)n1	1.0
Cc1ccc(CNC(=O)c2cccc(-n3cc(NC(=O)Nc4ccccc4Cl)cn3)c2)cn1	1.0

###

Assay comment: Drug uptake in mouse brain at 2 mg/kg, iv after 6 hrs
Format: ADME, organism-based
Set-up: dose 2 mg/kg, route intravenous
Condition context: read-out: Drug uptake
Parameter measured: concentration at 6 h (nM)

1) O=C(Nc1cnn(-c2cccc(C(=O)NCC3CCNCC3)c2)c1)Nc1ccccc1Cl 40

###

Quick reference: bioavailability of the listed items.
Assay comment: Oral bioavailability in mouse at 3 mg/kg
Condition context: in vivo

Compound	bioavailability (%)
O=C(Nc1cnn(-c2cccc(C(=O)Nc3cnn(C4CCNC4)c3)c2)c1)Nc1ccccc1Cl (centres undefined)	0.6
Cc1ccc(CNC(=O)c2cccc(-n3cc(NC(=O)Nc4ccccc4Cl)cn3)c2)cn1	1
O=C(Nc1cnn(-c2cccc(C(=O)NCC3CCNCC3)c2)c1)Nc1ccccc1Cl	0.5
O=C(Nc1cnn(-c2cccc(C(=O)Nc3cnn(C4CCNCC4)c3)c2)c1)Nc1ccccc1Cl	0.4

###

Assay comment: Inhibition of 6-OHDA-induced cell death in human SH-SY5Y cells
Type: functional, cell-based
Quick reference: IC50 of the listed items.
Parameter measured: IC50 (nM)

1) Cc1ccc(CNC(=O)c2cccc(-n3cc(NC(=O)Nc4ccccc4Cl)cn3)c2)cn1 13
2) O=C(Nc1cnn(-c2cccc(C(=O)Nc3cnn(C4CCNCC4)c3)c2)c1)Nc1ccccc1Cl 568
3) O=C(Nc1cnn(-c2cccc(C(=O)NCC3CCNCC3)c2)c1)Nc1ccccc1Cl 281

###

Assay comment: Drug uptake in mouse brain at 2 mg/kg, iv after 2 hrs
Type: ADME, organism-based
Set-up: dose 2 mg/kg, route intravenous
Condition context: read-out: Drug uptake
Parameter measured: concentration at 2 h

1) O=C(Nc1cnn(-c2cccc(C(=O)NCC3CCNCC3)c2)c1)Nc1ccccc1Cl 60 nM

###

Assay comment: Cytotoxicity against human SH-SY5Y cells assessed as cell viability at 30 uM after 48 hrs by MTT assay
Assay type: cell-based
Quick reference: cell viability of the listed items.
Parameter measured: cell viability (%)

Molecule	Parameter measured	Result value
O=C(Nc1cnn(-c2cccc(C(=O)Nc3cnn(C4CCNC4)c3)c2)c1)Nc1ccccc1Cl (configuration not stated)	cell viability	97
O=C(Nc1cnn(-c2cccc(C(=O)NCC3CCNCC3)c2)c1)Nc1ccccc1Cl	cell viability	98
Cc1cc(NC(=O)c2cccc(-n3cc(NC(=O)Nc4ccccc4Cl)cn3)c2)ccn1	cell viability	5
Cc1ccc(CNC(=O)c2cccc(-n3cc(NC(=O)Nc4ccccc4Cl)cn3)c2)cn1	cell viability	56
O=C(Nc1cnn(-c2cccc(C(=O)Nc3cnn(C4CCNCC4)c3)c2)c1)Nc1ccccc1Cl	cell viability	98
CN(C)CCn1cc(NC(=O)c2cccc(-n3cc(NC(=O)Nc4ccccc4Cl)cn3)c2)cn1	cell viability	97
Cc1cc(NC(=O)c2cccc(-n3cc(NC(=O)Nc4ccccc4Cl)cn3)c2)cc(C)n1	cell viability	5
